This collection of values is drawn from PubChem BioAssay (NCI).

- Tested on: SK-MEL-5 melanoma
- assay_notes: NCI tumour cell line growth inhibition, 48 h
# TGI values compiled below

Below are worked cases with known answers.
>>> print(df.to_string())
                                   compound      target_entity  measurement_name  endpoint_value
0  O=C(NCCCCCCCCCCCCNC(=O)Nc1cccc2ccccc12)Nc1cccc2ccccc12  SK-MEL-5 melanoma               TGI         46.2 µM
1  O=[N+]([O-])c1ccc(-n2nnc(C3=NCCN3)c2-c2ccccc2)cc1  SK-MEL-5 melanoma               TGI        > 100 µM

API: the following record is the query input.
### Prompt Find the recorded TGI belonging to CN(C(=O)C12C3C4C1C1C2C3C41C(N)=O)C(C)(C)C (stereo not drawn) and report it.
### Response > 100 µM

###

- Test system: OVCAR-8 ovarian
- assay_notes: NCI tumour cell line growth inhibition, 48 h
# TGI values compiled below

compound	target_entity	endpoint_value
CCC1(c2ccccc2)Sc2ccccc2-n2cccc2C1=O (stereo not given)	OVCAR-8 ovarian	> 10 µM

### Prompt Find the recorded TGI belonging to COC1CC(O[C@H]2CC[C@@]3(C)[C@H](CC[C@@H]4[C@@H]3CC[C@]3(C)[C@@H](C5=CC(=O)OC5)[C@@H](OC(C)=O)C[C@]43O)C2)OC(C)C1O (stereo not given in full) and report it.
### Response < 0.01 µM

### Prompt Here is the next compound: CCOP(=O)(/C=C\n1cc(C)c(=O)[nH]c1=O)OCC
### Response > 100 µM

### Prompt Here is the next compound: ClCCCc1ccccc1C1=NCCc2ccccc21
### Response > 100 µM

### Prompt Here is the next compound: COc1cc2c(cc1OC)[C@H](C)N1CCc3cc(OC)c(OC)cc3[C@@H]1C2
### Response > 100 µM

### Prompt Here is the next compound: CC(=C(c1ccccc1)c1ccccc1)N1C(=O)CC(=O)N1C
### Response > 100 µM

###

- System: EKVX NSCLC
- assay_notes: NCI tumour cell line growth inhibition, 48 h
# TGI values compiled below
Expressed in µM, but write only the number.

In [3]: df
Out[3]:
                  chemical_smiles  measurement_name  endpoint_value
0  COc1cc(OC)c2nc(C)c3c(c2c1)SCC3               TGI            52.9

### Prompt Find the recorded TGI belonging to COc1ccc(C/C(C)=C(/c2ccc(OCCN3CCCCC3)cc2)c2ccc(OC(=O)NCc3ccccc3)cc2)cc1 and report it.
### Response 0.773

###

# TGI values compiled below
- Tested on: SF-295 CNS
- assay_notes: NCI tumour cell line growth inhibition, 48 h

Below are worked cases with known answers.
>>> df
                                   molecule  measurement_name  endpoint_value
0               CCCCC(=O)c1c(O)nc2sccn2c1=O               TGI         > 10 µM
1     CC(=O)N1CC(C)(C)c2c(C)c(O)c(C)c(C)c21               TGI        > 100 µM
2  COC(=O)C1(Cc2ccc3c(c2)CCC3)Cc2ccccc2C1O (configuration not stated)               TGI         35.2 µM
3      Cc1ccc2c(=O)cc(-c3ccc(Cl)s3)[nH]c2n1               TGI         4.85 µM
4  CC(=O)[CH-]C(=O)c1ccccc1.CC(=O)[CH-]C(=O)c1ccccc1.CC[O-].CC[O-].[Hf+4]               TGI        > 100 µM
5  COP(=O)(OC)C(Cc1cn(C(C)=O)c2ccccc12)C(=O)O (configuration not stated)               TGI        > 100 µM
6  COc1c(O)c(C=O)c2c(O)c(-c3c(C)cc4c(C(C)C)c(OC)c(O)c(C=O)c4c3O)c(C)cc2c1C(C)C               TGI           17 µM
7  CC(C)(C)C(=O)OCC1C(=O)OCC1C(=O)N1Cc2cc3ccccc3nc2C1 (configuration not stated)               TGI         27.4 µM

### Prompt Item CCN(CC)N1C(=O)[N+](CC)(CC)N=C1[O-] with SF-295 CNS - TGI?
### Response > 100 µM

### Prompt Here is the next molecule: CC(NC(=O)C(NC(=O)CNC(=O)OC(C)(C)C)C(C)C)C(=O)Oc1c(Cl)c(Cl)c(Cl)c(Cl)c1Cl (configuration not stated)
### Response 34.3 µM

### Prompt Here is the next molecule: Cc1ccc2c(c1)-c1c3c(nn1-c1ccccc1)-c1ccccc1SC3O2 (configuration not stated)
### Response > 100 µM

### Prompt Here is the next molecule: COC(OC)[C@@H]1OC[C@H](n2cnc3c(N)ncnc32)[C@H]1O
### Response > 100 µM

### Prompt Here is the next molecule: COc1cc([C@@H]2c3cc4c(cc3[C@@H](c3c(O)cc(O)c5c3O[C@H](c3ccc(O)c(O)c3)[C@@H](O)C5)[C@H]3COC(=O)[C@H]23)OCO4)cc(OC)c1OC
### Response 3.45 µM
